Molecular target: human TLR7 (Homo sapiens, UniProt Q9NYK1)
Sequence (Q9NYK1 27-1049): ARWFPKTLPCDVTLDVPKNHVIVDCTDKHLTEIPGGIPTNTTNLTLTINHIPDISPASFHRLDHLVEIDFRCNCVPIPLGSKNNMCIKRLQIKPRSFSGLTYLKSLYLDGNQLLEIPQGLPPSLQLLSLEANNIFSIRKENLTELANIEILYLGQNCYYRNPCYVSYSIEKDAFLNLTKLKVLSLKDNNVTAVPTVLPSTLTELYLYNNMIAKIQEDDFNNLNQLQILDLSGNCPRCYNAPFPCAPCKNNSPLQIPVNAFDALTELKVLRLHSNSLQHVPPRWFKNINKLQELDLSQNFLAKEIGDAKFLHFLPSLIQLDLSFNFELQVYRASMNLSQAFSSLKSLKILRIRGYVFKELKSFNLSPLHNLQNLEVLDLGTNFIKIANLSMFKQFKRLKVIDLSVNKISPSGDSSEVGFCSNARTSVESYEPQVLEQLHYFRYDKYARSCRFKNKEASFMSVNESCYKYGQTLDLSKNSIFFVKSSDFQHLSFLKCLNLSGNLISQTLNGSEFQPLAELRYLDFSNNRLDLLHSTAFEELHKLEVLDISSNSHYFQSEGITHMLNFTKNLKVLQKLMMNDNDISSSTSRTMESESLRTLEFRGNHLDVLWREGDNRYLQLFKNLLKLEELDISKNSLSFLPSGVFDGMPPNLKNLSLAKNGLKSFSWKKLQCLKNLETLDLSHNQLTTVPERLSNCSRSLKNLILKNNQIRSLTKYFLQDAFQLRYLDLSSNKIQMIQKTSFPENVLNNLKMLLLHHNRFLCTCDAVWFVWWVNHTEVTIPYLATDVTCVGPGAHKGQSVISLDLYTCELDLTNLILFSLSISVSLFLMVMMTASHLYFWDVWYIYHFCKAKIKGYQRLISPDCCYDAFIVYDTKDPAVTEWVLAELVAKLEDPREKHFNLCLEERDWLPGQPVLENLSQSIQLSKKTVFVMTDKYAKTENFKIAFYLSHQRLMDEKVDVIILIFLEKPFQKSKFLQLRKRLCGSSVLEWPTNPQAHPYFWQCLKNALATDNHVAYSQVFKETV
Assay: HEK293-Blue-hTLR-7 cells assay (SEAP reporter)
Format: cell-based
Conditions: HEK293-Blue-hTLR-7 cells, SEAP reporter, 20 hrs; prodrug; read-out: HEK293-hTLR-7 EC50 (Prodrug)
PROPERTY_NAME: pEC50
Scale: pEC50 equals -log10([C]), with [C] in mol/L.

// solved cases for pEC50 follow
| MOLECULE | VALUE_MEASURED |
| --- | --- |
| CCCN(C)C(=O)n1c(=O)n(Cc2ccc(Cl)cc2)c2nc([S@](=N)(=O)CC)nc(N)c21 | 4.36 |
| CCCS(=N)(=O)c1nc(N)c2c(n1)n(Cc1ccccc1)c(=O)n2C(=O)N1CCC1 (stereo not shown) | 4.72 |
| CCCN(C)C(=O)n1c(=O)n(Cc2ccc(Br)cc2)c2nc([S@@](=N)(=O)CC)nc(N)c21 (single isomer, unassigned) | 4.88 |

Let us move to another entry and its pEC50.
Fill in the blank: the reported pEC50 of CCCS(=N)(=O)c1nc(N)c2c(n1)n(Cc1ccccc1)c(=O)n2C(=O)N(C)CCCOC (stereo not shown) is ____.
4.36

###

Test: LYSA solubility study
Format: physicochemical
Settings: phosphate buffer, pH 6.5, aqueous buffer, thermodynamic from solid, 0.05M phosphate buffer pH 6.5, read-out: LYSA of Prodrugs
Quick rule: solubility thermodynamic of at least 400 µg/mL means true (1), below that means false (0).

Is reported solubility thermodynamic greater than or equal to 400 µg/mL here: CCCS(=N)(=O)c1nc(N)c2c(n1)n(Cc1ccccc1)c(=O)n2C(=O)N(C)CCN(C)C(C)=O (stereo not shown)
true (1)

Could you verify whether the entry CCCS(=N)(=O)c1nc(N)c2c(n1)n(Cc1ccccc1)c(=O)n2C(=O)N(C)CCN(C)C(=O)OC (stereo not shown) shows solubility thermodynamic of no less than 400 µg/mL?
true (1)

Confirm if solubility thermodynamic reported for the compound CCCN(C)C(=O)n1c(=O)n(Cc2ccc(F)cc2)c2nc(S(=N)(=O)CC)nc(N)c21 (single isomer, unassigned) [Example 45-A] is 400 µg/mL or above.
true (1)

Exam item: decide whether the reported solubility thermodynamic for CCCS(=N)(=O)c1nc(N)c2c(n1)n(Cc1ccccc1)c(=O)n2C(=O)N(C)CCOC (single isomer, unassigned) [Example 2-A] is at least 400 µg/mL.
true (1)

Could you tell me if the measured solubility thermodynamic of CCCS(=N)(=O)c1nc(N)c2c(n1)n(Cc1ccccc1)c(=O)n2C(=O)N(CC)CCOC (stereo not shown) reaches 400 µg/mL or more?
true (1)

###

Assay: LYSA solubility study
Assay type: physicochemical
Details: phosphate buffer, pH 6.5, aqueous buffer, thermodynamic from solid, 0.05M phosphate buffer pH 6.5, read-out: LYSA of Prodrugs
Protocol: LYSA study is used to determine the aqueous solubility of tested compounds. Samples were prepared in duplicate from 10 mM DMSO stock solution. After evaporation of DMSO with a centrifugal vacuum evaporator, the compounds were dissolved in 0.05M phosphate buffer (pH 6.5), stirred for one hour and shaken for two hours. After one night, the solutions were filtered using a microtiter filter plate. Then the filtrate and its 1/10 dilution were analyzed by HPLC-UV. […] The results were in μg/mL. […]
Catalogue of molecules with associated solubility thermodynamic
Numeric only. Scale: µg/mL

Reference set (5 entries):
| MOLECULE | SCALE_UNIT | VALUE_MEASURED |
| --- | --- | --- |
| CCCS(=N)(=O)c1nc(N)c2c(n1)n(Cc1ccccc1)c(=O)n2C(=O)N(C)CC(=O)OCC (centres unmarked) | µg/mL | 225 |
| CCCS(=N)(=O)c1nc(N)c2c(n1)n(Cc1ccccc1)c(=O)n2C(=O)N(C)CCC(=O)OCC (centres unmarked) | µg/mL | 405 |
| CCCN(C)C(=O)n1c(=O)n(Cc2ccc(F)cc2)c2nc([S@@](=N)(=O)CC)nc(N)c21 (single isomer, unassigned) | µg/mL | 420 |
| CCCS(=N)(=O)c1nc(N)c2c(n1)n(Cc1ccccc1)c(=O)n2C(=O)N1CCC(N2CCCCC2)CC1 (centres unmarked) | µg/mL | 695 |
| CCCCN(CC)C(=O)n1c(=O)n(Cc2ccccc2)c2nc(S(=N)(=O)CCC)nc(N)c21 (centres unmarked) | µg/mL | 140 |

So what does the record say about solubility thermodynamic for `CCCN(C)C(=O)n1c(=O)n(Cc2ccc(C)cc2)c2nc([S@@](=N)(=O)CCC)nc(N)c21` ?
168
